Provenance of the data: PubChem BioAssay AID2060884

System: NCI-H929 complex spheroids, viability % test/control
Test: Anticancer human tumor NCI-H929 cell line growth inhibition [RAS];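 also: compound exposure lasted seven days before viability was read; 100% = DMSO vehicle control viability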
Settings: second compound 1 µM; first compound 3.16 µM; stronger effect = lower value
Description: RAS pathway inhibitors in Combinations in Complex Spheroids A high-throughput screen of multi-cell type tumor spheroids was designed to identify active combinations of RAS pathway inhibitors and targeted small molecules. Complex spheroids include a stromal component modeled by human endothelial cells (HUVEC) and fibroblasts modeled by human mesenchymal stem cells (MSCs). […] Compounds. […] If the clinical Cmax for an agent had not been determined, the highest concentration tested was 10 microM. […]
Note to self: viability, T/C under 80% means 1.0, ties and anything higher get 0.0.

- compound: "CC1(O)CCCC1n1c(=O)c(C(F)F)cc2cnc(NC3CCN(S(C)(=O)=O)CC3)nc21 (stereo not given) + C=CC(=O)N1CCN(c2nc(OCC3CCCN3C)nc3c(F)c(-c4nc(N)cc(C)c4C(F)(F)F)c(Cl)cc23)C(C)C1"
  answer_label: 1.0
- compound: "NC1c2ccccc2OC12CCN(c1cnc3c(N4CCCc5ncccc54)n[nH]c3n1)CC2 (stereo not given) + C=CC(=O)N1CCN(c2nc(OCC3CCCN3C)nc3c(F)c(-c4nc(N)cc(C)c4C(F)(F)F)c(Cl)cc23)C(C)C1"
  answer_label: 0.0
- compound: "C[C@@H](NC(=O)c1ncnc(N)c1Cl)c1ncc(C(=O)Nc2cc(C(F)(F)F)c(Cl)cn2)s1 + C#Cc1c(F)ccc2cc(O)cc(-c3ncc4c(N5CC6CCC(C5)N6)nc(OCC56CCCN5CC(F)C6)nc4c3F)c12"
  answer_label: 0.0
- compound: "CC1(O)CCCC1n1c(=O)c(C(F)F)cc2cnc(NC3CCN(S(C)(=O)=O)CC3)nc21 (stereo not given) + C#Cc1c(F)ccc2cc(O)cc(-c3ncc4c(N5CC6CCC(C5)N6)nc(OCC56CCCN5CC(F)C6)nc4c3F)c12"
  answer_label: 1.0

Now look at this one.
## Input I'd appreciate it if you could check whether CC(Nc1ccc2c(c1)OCCn1cc(N3C(=O)OCC3C(F)F)nc1-2)C(N)=O (stereo not given) + C#Cc1c(F)ccc2cc(O)cc(-c3ncc4c(N5CC6CCC(C5)N6)nc(OCC56CCCN5CC(F)C6)nc4c3F)c12 has viability, T/C smaller than 80%.
## Output 0.0

* * *

System: NCI-H929 complex spheroids, viability % test/control
Assay: Anticancer human tumor NCI-H929 cell line growth inhibition [RAS];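 also: compound exposure lasted seven days before viability was read; 100% = DMSO vehicle control viability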
Conditions: second compound 0.3 µM; first compound 0.1 µM; stronger effect = lower value
measured_quantity: viability, T/C (%)
Answers are plain numbers, in %.

Reference set, count: 3
- compound: "CC(C)NCC(C(=O)N1CCN(c2ncnc3c2C(C)CC3O)CC1)c1ccc(Cl)cc1 (centres undefined) + CCn1c(-c2cc(N3CCN(C)CC3)cnc2C(C)OC)c2c3cc(ccc31)-c1csc(n1)CC(NC(=O)C1CC1C)C(=O)N1CCCC(N1)C(=O)OCC(C)(C)C2"
  readout_unit: "%"
  viability, T/C: 1.14
- compound: "CC(Nc1ccc2c(c1)OCCn1cc(N3C(=O)OCC3C(F)F)nc1-2)C(N)=O (centres undefined) + CCn1c(-c2cc(N3CCN(C)CC3)cnc2C(C)OC)c2c3cc(ccc31)-c1csc(n1)CC(NC(=O)C1CC1C)C(=O)N1CCCC(N1)C(=O)OCC(C)(C)C2"
  readout_unit: "%"
  viability, T/C: 0.73
- compound: "CC(C)n1nc(-c2ccc3oc(N)nc3c2)c2c(N)ncnc21 + CCn1c(-c2cc(N3CCN(C)CC3)cnc2C(C)OC)c2c3cc(ccc31)-c1csc(n1)CC(NC(=O)C1CC1C)C(=O)N1CCCC(N1)C(=O)OCC(C)(C)C2"
  readout_unit: "%"
  viability, T/C: 0.34

Now take the following compound into account.
get_value(item= CC(=O)OC12COC1CC(O)C1(C)C(=O)C(O)C3=C(C)C(OC(=O)C(O)C(NC(=O)OC(C)(C)C)c4ccccc4)CC(O)(C(OC(=O)c4ccccc4)C21)C3(C)C (centres undefined) + CCn1c(-c2cccnc2C(C)OC)c2c3cc(ccc31)N1CCOC(CC(NC(=O)C(C(C)C)N(C)C(=O)C3(F)CCN(C(=O)C#CC(C)(C)N(C)C)CC3)C(=O)N3CCCC(N3)C(=O)OCC(C)(C)C2)C1 , readout=viability, T/C) returns 0.68

* * *

Tested on: NCI-H929 complex spheroids, viability % test/control
Test: Anticancer human tumor NCI-H929 cell line growth inhibition [RAS];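 also: compound exposure lasted seven days before viability was read; 100% = DMSO vehicle control viability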
Details: second compound 0.316 µM; first compound 0.0949 µM; stronger effect = lower value
Description: RAS pathway inhibitors in Combinations in Complex Spheroids A high-throughput screen of multi-cell type tumor spheroids was designed to identify active combinations of RAS pathway inhibitors and targeted small molecules. Complex spheroids include a stromal component modeled by human endothelial cells (HUVEC) and fibroblasts modeled by human mesenchymal stem cells (MSCs). […] Compounds. […] If the clinical Cmax for an agent had not been determined, the highest concentration tested was 10 microM. […]
measured_quantity: viability, T/C (%)
Give bare numbers, in %.

Reference set, count: 3
- compound: "CC1(C)CCC(Nc2ncc(C(F)(F)F)c(-c3c[nH]c4c(P(C)(C)=O)c(C#N)ccc34)n2)CN1 (centres undefined) + C=CC(=O)N1CCN(c2nc(OCC3CCCN3C)nc3c(F)c(-c4nc(N)cc(C)c4C(F)(F)F)c(Cl)cc23)C(C)C1"
  numeric_result: 8.16
- compound: "CCc1c2c(nc3ccc(O)cc13)-c1cc3c(c(=O)n1C2)COC(=O)[C@]3(O)CC + C=CC(=O)N1CCN(c2nc(OCC3CCCN3C)nc3c(F)c(-c4nc(N)cc(C)c4C(F)(F)F)c(Cl)cc23)C(C)C1"
  numeric_result: 1.37
- compound: "CC1(C)CCC(Nc2ncc(C(F)(F)F)c(-c3c[nH]c4c(P(C)(C)=O)c(C#N)ccc34)n2)CN1 (centres undefined) + C#Cc1c(F)ccc2cc(O)cc(-c3ncc4c(N5CC6CCC(C5)N6)nc(OCC56CCCN5CC(F)C6)nc4c3F)c12"
  numeric_result: 8.37

Now take the following compound into account.
Tested on NCI-H929 complex spheroids, viability % test/control: CCc1c2c(nc3ccc(O)cc13)-c1cc3c(c(=O)n1C2)COC(=O)[C@]3(O)CC + C#Cc1c(F)ccc2cc(O)cc(-c3ncc4c(N5CC6CCC(C5)N6)nc(OCC56CCCN5CC(F)C6)nc4c3F)c12 . Observed viability, T/C: 1.35

* * *

For each entry below, report its viability, T/C value.
Tested on: NCI-H929 complex spheroids, viability % test/control
Test: Anticancer human tumor NCI-H929 cell line growth inhibition [RAS];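 also: compound exposure lasted seven days before viability was read; 100% = DMSO vehicle control viability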
Details: second compound 0.000949 µM; first compound 0.00316 µM; stronger effect = lower value

Reference set, count: 3
- compound: "CCN1CCN(Cc2ccc(Nc3ncc(F)c(-c4cc(F)c5nc(C)n(C(C)C)c5c4)n3)nc2)CC1 + CCn1c(-c2cc(N3CCN(C)CC3)cnc2C(C)OC)c2c3cc(ccc31)-c1csc(n1)CC(NC(=O)C1CC1C)C(=O)N1CCCC(N1)C(=O)OCC(C)(C)C2"
  viability, T/C: "104%"
- compound: "C=CC(=O)N1CCN(c2nc(OCC3CCCN3C)nc3c(F)c(-c4nc(N)cc(C)c4C(F)(F)F)c(Cl)cc23)C(C)C1 (stereo unspecified) + CCn1c(-c2cccnc2C(C)OC)c2c3cc(ccc31)N1CCOC(CC(NC(=O)C(C(C)C)N(C)C(=O)C3(F)CCN(C(=O)C#CC(C)(C)N(C)C)CC3)C(=O)N3CCCC(N3)C(=O)OCC(C)(C)C2)C1"
  viability, T/C: "104%"
- compound: "C=CC(=O)Nc1cc(Nc2nccc(-c3cn(C)c4ccccc34)n2)c(OC)cc1N(C)CCN(C)C + CCn1c(-c2cc(N3CCN(C)CC3)cnc2C(C)OC)c2c3cc(ccc31)-c1csc(n1)CC(NC(=O)C1CC1C)C(=O)N1CCCC(N1)C(=O)OCC(C)(C)C2"
  viability, T/C: "97.3%"

Consider the following items and state reported viability, T/C for each.
1. CCN1CCN(Cc2ccc(Nc3ncc(F)c(-c4cc(F)c5nc(C)n(C(C)C)c5c4)n3)nc2)CC1 + CCn1c(-c2cccnc2C(C)OC)c2c3cc(ccc31)N1CCOC(CC(NC(=O)C(C(C)C)N(C)C(=O)C3(F)CCN(C(=O)C#CC(C)(C)N(C)C)CC3)C(=O)N3CCCC(N3)C(=O)OCC(C)(C)C2)C1
2. C=CC(=O)Nc1cc(Nc2nccc(-c3cn(C)c4ccccc34)n2)c(OC)cc1N(C)CCN(C)C + CCn1c(-c2cccnc2C(C)OC)c2c3cc(ccc31)N1CCOC(CC(NC(=O)C(C(C)C)N(C)C(=O)C3(F)CCN(C(=O)C#CC(C)(C)N(C)C)CC3)C(=O)N3CCCC(N3)C(=O)OCC(C)(C)C2)C1

## Output
105%
105%

get_value(item= Nc1ccn(C2OC(CO)C(O)C2(F)F)c(=O)n1 (stereo unspecified) + CCn1c(-c2cccnc2C(C)OC)c2c3cc(ccc31)N1CCOC(CC(NC(=O)C(C(C)C)N(C)C(=O)C3(F)CCN(C(=O)C#CC(C)(C)N(C)C)CC3)C(=O)N3CCCC(N3)C(=O)OCC(C)(C)C2)C1 , readout=viability, T/C) returns 105%
